# measured_on: Protein cereblon/Phospholipid hydroperoxide glutathione peroxidase GPX4 (Homo sapiens) (UniProt Q96SW2+P36969)
# Sequence (P36969 whole entry, looked up): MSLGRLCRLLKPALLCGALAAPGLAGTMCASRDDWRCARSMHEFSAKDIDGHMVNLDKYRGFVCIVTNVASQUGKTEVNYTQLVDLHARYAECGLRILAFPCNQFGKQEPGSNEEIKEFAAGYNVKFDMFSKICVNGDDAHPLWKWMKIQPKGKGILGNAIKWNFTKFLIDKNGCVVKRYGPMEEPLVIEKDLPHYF
# Sequence (Q96SW2 whole entry, looked up): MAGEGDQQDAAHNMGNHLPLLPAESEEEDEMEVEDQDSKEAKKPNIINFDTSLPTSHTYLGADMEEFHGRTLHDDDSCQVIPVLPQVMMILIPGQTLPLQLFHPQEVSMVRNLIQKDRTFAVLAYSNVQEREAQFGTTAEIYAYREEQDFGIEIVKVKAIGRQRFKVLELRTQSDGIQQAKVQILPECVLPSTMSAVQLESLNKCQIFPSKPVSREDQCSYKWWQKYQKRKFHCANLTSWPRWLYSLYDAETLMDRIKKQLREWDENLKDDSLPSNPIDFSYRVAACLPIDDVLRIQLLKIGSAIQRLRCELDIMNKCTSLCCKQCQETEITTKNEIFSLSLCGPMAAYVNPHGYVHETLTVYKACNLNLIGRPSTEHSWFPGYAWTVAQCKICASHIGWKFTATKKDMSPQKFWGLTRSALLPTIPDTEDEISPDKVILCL
# assay_procedure: PROTAC activity at CRBN/GPX4 in human MGC-803 cells assessed as induction of GPX4 degradation at 10 uM incubated for 24 hrs by Western blot analysis
# Format: cell-based
Below: a set of entries, each annotated with reported Activity.

molecule: O=C(CCOCCNc1cccc2c1CN(C1CCC(=O)NC1=O)C2=O)NCCC(=O)Nc1ccc(N(C(=O)CCl)C(C(=O)NCCc2ccccc2)c2cccs2)cc1 (stereo not drawn)
Activity: < 10%
//
molecule: O=C(CCOCCNc1cccc2c1C(=O)N(C1CCC(=O)NC1=O)C2=O)NCCC(=O)Nc1ccc(N(C(=O)CCl)C(C(=O)NCCc2ccccc2)c2cccs2)cc1 (stereo not drawn)
Activity: < 10%
//
molecule: O=C(CCOCCNc1cccc2c1C(=O)N(C1CCC(=O)NC1=O)C2=O)NCCOCCOCCC(=O)Nc1ccc(N(C(=O)CCl)C(C(=O)NCCc2ccccc2)c2cccs2)cc1 (stereo not drawn)
Activity: < 10%
